assayed_target: human μ opioid receptor (Homo sapiens)
Construct: expressed in transfected cells
Sequence (P35372 whole entry): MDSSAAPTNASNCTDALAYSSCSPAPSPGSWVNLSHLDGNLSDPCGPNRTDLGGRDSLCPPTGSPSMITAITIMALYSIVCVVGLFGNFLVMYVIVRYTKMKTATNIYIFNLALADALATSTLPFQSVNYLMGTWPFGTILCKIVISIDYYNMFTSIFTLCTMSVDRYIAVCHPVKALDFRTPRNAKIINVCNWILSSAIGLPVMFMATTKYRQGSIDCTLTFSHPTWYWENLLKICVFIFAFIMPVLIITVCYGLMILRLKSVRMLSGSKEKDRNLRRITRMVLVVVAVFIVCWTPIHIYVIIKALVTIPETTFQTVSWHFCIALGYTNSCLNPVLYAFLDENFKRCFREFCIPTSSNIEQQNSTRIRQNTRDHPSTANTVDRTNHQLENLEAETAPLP
measurement_notes: [35S]GTPγS binding assay, μ
Format: biochemical
measurement_conditions: agonist/antagonist character; antagonism vs 200 nM DAMGO
endpoint: GTPγS data, MOR

>>> result("C[C@H]1C2Cc3ccc4[nH]nnc4c3[C@@]1(C)CCN2CC1CC1")
"antagonist"
>>> result("C[C@H]1C2Cc3cc4nn[nH]c4cc3[C@@]1(C)CCN2CC1CC1")
"antagonist"

====

assayed_target: human opioid receptor (μ) (Homo sapiens)
Construct: expressed in transfected cells
Sequence (P35372 whole entry): as above
measurement_notes: Opioid receptor binding, [3H]DAMGO (μ)
Overview of reported Ki across a group of molecules:

Worked cases, answers included:
>>> result("CC1C2Cc3cc4ncnc(N)c4cc3C1(C)CCN2CC1CC1 (stereo not drawn)")
"890 nM"
>>> result("CC1C2Cc3cc4[nH]c(=O)[nH]c4cc3C1(C)CCN2CC1CC1 (stereo not drawn)")
"60 nM"

response.value for Cc1nc2cc3c(cc2[nH]1)CC1C(C)C3(C)CCN1CC1CC1 (stereo not drawn) (field: Ki) = 0.77 nM

response.value for CC1C2Cc3cc4ncnc(NCCc5ccc(-c6ccccc6)cc5)c4cc3C1(C)CCN2CC1CC1 (stereo not drawn) (field: Ki) = 28 nM

response.value for CC1C2Cc3cc4nc[nH]c4cc3C1(C)CCN2CC1CC1 (stereo not drawn) (field: Ki) = 0.31 nM

The origin of these recorded values is patent US20100130512A1.
